- TARGET: HA-mouse µOR (Mus musculus)
- Construct: HA; expressed in transfected cells; host or cells: HEK 293
- Sequence (P42866 whole entry): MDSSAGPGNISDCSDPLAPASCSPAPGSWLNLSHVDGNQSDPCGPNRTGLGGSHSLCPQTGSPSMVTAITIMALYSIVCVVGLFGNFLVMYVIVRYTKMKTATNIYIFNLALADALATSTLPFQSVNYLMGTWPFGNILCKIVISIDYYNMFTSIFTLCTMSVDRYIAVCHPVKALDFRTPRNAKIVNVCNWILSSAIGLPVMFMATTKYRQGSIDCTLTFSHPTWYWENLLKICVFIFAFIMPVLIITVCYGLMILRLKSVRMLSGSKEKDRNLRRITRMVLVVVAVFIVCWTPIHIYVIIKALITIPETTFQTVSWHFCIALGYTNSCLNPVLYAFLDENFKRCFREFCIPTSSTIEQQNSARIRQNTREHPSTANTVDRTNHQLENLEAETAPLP
- ASSAY_SUMMARY: cAMP GloSensor inhibition assay in HEK 293 cells
- Assay type: cell-based
- RUN_PARAMETERS: HEK 293, forskolin 30 µM; read-out: cAMP IC50 (nM) µOR
Square brackets hold non-standard residues; d marks the D form. Peptide text beside a SMILES is read from it. 4Pal = N[C@@H](Cc1ccncc1)C(=O)O
Reported IC50 by item:
Please state the figure in nM; there is no need to write the unit.

| MOLECULE | IC50, nM |
| --- | --- |
| COc1cccc(C[C@H](NC(=O)CNC(=O)CNC(=O)[C@@H](N)Cc2ccc(O)cc2)C(=O)N[C@@H](CC(C)C)C(=O)O)c1 [Compound 1f] | 8.12 |
| CC(C)C[C@H](NC(=O)[C@H](Cc1cccc(Cl)c1)NC(=O)CNC(=O)CNC(=O)[C@@H](N)Cc1ccc(O)cc1)C(=O)O [Compound 1b, H2N-Tyr-Gly-Gly-(meta-Cl)Phe-Leu-OH] | 30.2 |
| CC(C)C[C@H](NC(=O)[C@H](Cc1cccc(I)c1)NC(=O)CNC(=O)CNC(=O)[C@@H](N)Cc1ccc(O)cc1)C(=O)O [Compound 1d] | 4.27 |

If you can, please state the reported IC50 value of CC(C)C[C@H](NC(=O)[C@H](Cc1ccncc1)NC(=O)CNC(=O)CNC(=O)[C@@H](N)Cc1ccc(O)cc1)C(=O)O [Compound 1l] (H-YGG[4Pal]L-OH; N-terminus and C-terminus assumed) . 302

---

Reported cAMP µOR Efficacy (%+SD) by item:
- TARGET: HA-mouse µOR (Mus musculus)
- Construct: HA; expressed in transfected cells; host or cells: HEK 293
- ASSAY_SUMMARY: cAMP GloSensor inhibition assay in HEK 293 cells
- Format: cell-based
- RUN_PARAMETERS: relative to DAMGO = 100
Please state the figure in %; there is no need to write the unit.

Here is how some compounds turned out for cAMP µOR Efficacy (%+SD).
| SMILES_NOTATION | UNIT_SPEC | RESULT_NUMBER |
| --- | --- | --- |
| CC(C)C[C@H](NC(=O)[C@H](Cc1cccc(I)c1)NC(=O)CNC(=O)CNC(=O)[C@@H](N)Cc1ccc(O)cc1)C(=O)O | % | 94 |
| CC(C)C[C@H](NC(=O)[C@H](Cc1cccc(F)c1)NC(=O)CNC(=O)CNC(=O)[C@@H](N)Cc1ccc(O)cc1)C(=O)O | % | 98 |

Then there is this compound:
If you can, please state the reported cAMP µOR Efficacy (%+SD) value of `Cc1cccc(C[C@H](NC(=O)CNC(=O)CNC(=O)[C@@H](N)Cc2ccc(O)cc2)C(=O)N[C@@H](CC(C)C)C(=O)O)c1` . 85
